B1: HDAC6 (parent)
chain: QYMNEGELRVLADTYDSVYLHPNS

Variants of: B1
MEASUREMENT PROTOCOL: protein stability index of a GFP-peptide fusion (GPS, HEK-293T) (PSI 1-6); higher = more stable;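 further: lentivirally expressed fusions sorted by FACS into six bins by GFP to DsRed ratio, PSI derived from sequencing read proportions per bin multiplied by bin number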
MEASUREMENT CONDITIONS: c terminus: a fixed tail appended
# label = true if protein stability index >= 2 else false

[
  {
    "MUTANT ID": "N23S",
    "QUALITATIVE LABEL": "true"
  },
  {
    "MUTANT ID": "R9M",
    "QUALITATIVE LABEL": "false"
  },
  {
    "MUTANT ID": "N4F",
    "QUALITATIVE LABEL": "false"
  },
  {
    "MUTANT ID": "T14E",
    "QUALITATIVE LABEL": "true"
  },
  {
    "MUTANT ID": "P22E",
    "QUALITATIVE LABEL": "true"
  },
  {
    "MUTANT ID": "Q1K",
    "QUALITATIVE LABEL": "false"
  },
  {
    "MUTANT ID": "V18H",
    "QUALITATIVE LABEL": "true"
  },
  {
    "MUTANT ID": "G6A",
    "QUALITATIVE LABEL": "true"
  },
  {
    "MUTANT ID": "A12I",
    "QUALITATIVE LABEL": "true"
  },
  {
    "MUTANT ID": "Q1E",
    "QUALITATIVE LABEL": "false"
  },
  {
    "MUTANT ID": "Y2W",
    "QUALITATIVE LABEL": "true"
  },
  {
    "MUTANT ID": "Y15K",
    "QUALITATIVE LABEL": "true"
  },
  {
    "MUTANT ID": "N4Q",
    "QUALITATIVE LABEL": "true"
  },
  {
    "MUTANT ID": "N4D",
    "QUALITATIVE LABEL": "false"
  },
  {
    "MUTANT ID": "T14W",
    "QUALITATIVE LABEL": "false"
  },
  {
    "MUTANT ID": "Y2P",
    "QUALITATIVE LABEL": "true"
  },
  {
    "MUTANT ID": "Y15V",
    "QUALITATIVE LABEL": "true"
  },
  {
    "MUTANT ID": "M3N",
    "QUALITATIVE LABEL": "true"
  },
  {
    "MUTANT ID": "P22N",
    "QUALITATIVE LABEL": "false"
  },
  {
    "MUTANT ID": "E7H",
    "QUALITATIVE LABEL": "true"
  },
  {
    "MUTANT ID": "M3S",
    "QUALITATIVE LABEL": "true"
  },
  {
    "MUTANT ID": "L8S",
    "QUALITATIVE LABEL": "true"
  }
]

# credit: the supplement of paper PMC10567573
